# experiment description: AUC in Sprague-Dawley rat at 3 umol/kg, po
# Assay type: ADME, organism-based
# applied conditions: plasma
assay readout: AUC (µM·h)
Response body: numeric value in µM·h, unit text excluded.

Could you please provide reported AUC for N#Cc1cc(F)cc(-c2nc(-c3ccc(F)cn3)no2)c1 ? Thanks! 5.4

====

# experiment description: Oral bioavailability in Sprague-Dawley rat at 3 umol/kg
# Assay type: ADME, organism-based
# applied conditions: in vivo
assay readout: bioavailability
# number then unit; no other words

Could you please provide reported bioavailability for N#Cc1cc(F)cc(-c2nc(-c3ccc(F)cn3)no2)c1 ? Thanks! 56%

Could you please provide reported bioavailability for N#Cc1ccc(-c2noc(-c3cc(F)cc(C#N)c3)n2)nc1 ? Thanks! 46%

====

# experiment description: Clearance in Sprague-Dawley rat at 3 umol/kg, iv
# Format: ADME, organism-based
# applied conditions: in vivo
assay readout: clearance (L/h/kg)
Response body: numeric value in L/h/kg, unit text excluded.

Could you please provide reported clearance for N#Cc1ccc(-c2noc(-c3cc(F)cc(C#N)c3)n2)nc1 ? Thanks! 0.24

Could you please provide reported clearance for N#Cc1cc(F)cc(-c2nc(-c3ccc(F)cn3)no2)c1 ? Thanks! 0.31

====

# assayed system: Metabotropic glutamate receptor 5 (Homo sapiens)
# experiment description: Binding affinity to human mGluR5 expressed in HEK293 cell membranes expressing GLAST by scintillation counting
assay readout: pKd
Expect pKd as a plain number equal to -log10 of the molar concentration.

Could you please provide reported pKd for [3H]c1c(F)cc(-c2nc(-c3ccc(F)cn3)no2)cc1C#N ? Thanks! 8.55

====

Task for the reader: assign each of the following compounds its reported pIC50.
# assayed system: Metabotropic glutamate receptor 5 (Homo sapiens, UniProt P41594)
# Sequence (P41594 whole entry): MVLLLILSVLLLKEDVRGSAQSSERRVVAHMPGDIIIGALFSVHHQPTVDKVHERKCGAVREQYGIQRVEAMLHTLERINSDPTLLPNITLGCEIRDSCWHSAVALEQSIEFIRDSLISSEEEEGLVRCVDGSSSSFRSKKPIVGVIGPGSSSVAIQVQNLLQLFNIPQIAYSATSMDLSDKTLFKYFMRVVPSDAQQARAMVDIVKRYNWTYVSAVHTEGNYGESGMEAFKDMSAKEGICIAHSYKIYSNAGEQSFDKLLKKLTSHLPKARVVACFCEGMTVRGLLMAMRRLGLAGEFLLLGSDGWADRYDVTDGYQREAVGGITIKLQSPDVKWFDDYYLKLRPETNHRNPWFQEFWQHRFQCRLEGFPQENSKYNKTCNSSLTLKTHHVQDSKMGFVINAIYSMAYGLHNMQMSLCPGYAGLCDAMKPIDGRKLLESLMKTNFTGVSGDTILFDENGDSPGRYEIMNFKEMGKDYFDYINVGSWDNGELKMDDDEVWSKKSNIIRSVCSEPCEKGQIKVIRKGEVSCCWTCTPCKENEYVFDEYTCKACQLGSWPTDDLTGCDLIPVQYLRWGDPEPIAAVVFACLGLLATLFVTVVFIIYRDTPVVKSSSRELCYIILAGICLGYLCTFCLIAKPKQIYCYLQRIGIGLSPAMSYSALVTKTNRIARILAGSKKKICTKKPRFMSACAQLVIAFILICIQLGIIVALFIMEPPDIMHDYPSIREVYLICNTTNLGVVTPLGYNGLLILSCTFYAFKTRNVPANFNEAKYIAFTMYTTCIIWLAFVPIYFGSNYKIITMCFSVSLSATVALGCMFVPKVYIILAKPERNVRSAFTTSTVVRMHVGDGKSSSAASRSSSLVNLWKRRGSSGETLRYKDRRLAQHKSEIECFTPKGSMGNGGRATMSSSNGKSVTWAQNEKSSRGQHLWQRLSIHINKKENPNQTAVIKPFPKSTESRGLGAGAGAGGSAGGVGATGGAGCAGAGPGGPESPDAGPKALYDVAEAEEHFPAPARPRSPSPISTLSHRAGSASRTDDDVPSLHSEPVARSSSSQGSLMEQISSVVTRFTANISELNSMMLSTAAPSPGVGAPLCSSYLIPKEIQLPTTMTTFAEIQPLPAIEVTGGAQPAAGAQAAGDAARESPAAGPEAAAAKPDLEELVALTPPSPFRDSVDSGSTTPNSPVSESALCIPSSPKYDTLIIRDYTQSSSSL
# experiment description: Negative allosteric modulation of human recombinant mGluR5 expressed in HEK293 cells expressing GLAST assessed as inhibition of glutamate-stimulated IP accumulation incubated for 10 mins prior to glutamate challenge measured 30 mins post glutamate challenge by scintillation counter in presence of [3H]myo-inositol
# Assay type: functional, cell-based
Expect pIC50 as a plain number equal to -log10 of the molar concentration.

Could you please provide reported pIC50 for N#Cc1cc(F)cc(-c2nc(-c3ccc(F)cn3)no2)c1 ? Thanks! 7.59

Could you please provide reported pIC50 for N#Cc1ccc(-c2noc(-c3cc(F)cc(C#N)c3)n2)nc1 ? Thanks! 7.29

====

# assayed system: UniProt:P41594
# experiment description: Displacement of [3H]AZD9272 from human mGluR5 expressed in HEK293 cell membranes expressing GLAST after 1 hr by scintillation counter
assay readout: Ki (µM)
Response body: numeric value in µM, unit text excluded.

Could you please provide reported Ki for N#Cc1ccc(-c2noc(-c3cc(F)cc(C#N)c3)n2)nc1 ? Thanks! 0.0179

====

# experiment description: Ratio of drug level in brain to plasma of Sprague-Dawley rat at 3 umol/kg, po
# Format: ADME
# applied conditions: read-out: BPR
Task for the reader: assign each of the following molecules its reported Kp.
I only need the number, thanks.

Could you please provide reported Kp for N#Cc1ccc(-c2noc(-c3cc(F)cc(C#N)c3)n2)nc1 ? Thanks! 1

Could you please provide reported Kp for N#Cc1cc(F)cc(-c2nc(-c3ccc(F)cn3)no2)c1 ? Thanks! 1

====

# assayed system: Metabotropic glutamate receptor 5 (Rattus norvegicus, UniProt P31424)
# Sequence (P31424 whole entry): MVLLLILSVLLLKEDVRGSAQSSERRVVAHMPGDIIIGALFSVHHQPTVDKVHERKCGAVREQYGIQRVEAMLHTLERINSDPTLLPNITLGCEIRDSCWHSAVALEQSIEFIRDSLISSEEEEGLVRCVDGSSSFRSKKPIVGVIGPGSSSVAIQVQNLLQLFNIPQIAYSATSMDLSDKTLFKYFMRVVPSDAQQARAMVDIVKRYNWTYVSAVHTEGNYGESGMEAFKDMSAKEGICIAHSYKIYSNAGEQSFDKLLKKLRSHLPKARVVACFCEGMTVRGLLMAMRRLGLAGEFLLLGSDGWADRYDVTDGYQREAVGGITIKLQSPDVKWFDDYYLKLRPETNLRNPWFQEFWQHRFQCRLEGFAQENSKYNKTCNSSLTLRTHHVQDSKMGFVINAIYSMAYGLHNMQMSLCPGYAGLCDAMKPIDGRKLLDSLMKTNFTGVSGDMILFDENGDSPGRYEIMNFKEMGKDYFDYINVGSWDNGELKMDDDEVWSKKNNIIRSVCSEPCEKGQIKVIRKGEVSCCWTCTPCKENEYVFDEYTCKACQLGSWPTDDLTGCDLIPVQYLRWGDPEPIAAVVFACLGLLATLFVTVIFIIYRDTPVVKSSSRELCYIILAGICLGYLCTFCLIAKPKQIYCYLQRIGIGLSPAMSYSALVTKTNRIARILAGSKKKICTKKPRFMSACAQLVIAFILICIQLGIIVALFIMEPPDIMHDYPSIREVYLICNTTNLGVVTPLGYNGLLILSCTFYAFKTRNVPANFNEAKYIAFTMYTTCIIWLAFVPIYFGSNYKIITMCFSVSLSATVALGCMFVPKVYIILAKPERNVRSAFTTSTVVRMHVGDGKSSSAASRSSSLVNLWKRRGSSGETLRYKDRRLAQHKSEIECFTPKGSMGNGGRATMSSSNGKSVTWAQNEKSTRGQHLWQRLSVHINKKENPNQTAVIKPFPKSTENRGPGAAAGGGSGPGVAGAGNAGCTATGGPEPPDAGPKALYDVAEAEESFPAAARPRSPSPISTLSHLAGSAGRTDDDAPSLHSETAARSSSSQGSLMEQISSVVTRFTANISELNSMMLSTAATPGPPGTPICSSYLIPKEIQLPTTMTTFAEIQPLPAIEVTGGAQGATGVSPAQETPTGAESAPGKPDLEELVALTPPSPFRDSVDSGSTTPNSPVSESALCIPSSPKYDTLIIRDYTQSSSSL
# experiment description: Negative allosteric modulation of rat recombinant mGluR5 expressed in HEK293 cells expressing GLAST assessed as inhibition of DHPG-induced intracellular Ca2+ level after 30 mins by FLIPR assay
# Format: functional, cell-based
assay readout: IC50 (nM)
Response body: numeric value in nM, unit text excluded.

Could you please provide reported IC50 for N#Cc1ccc(-c2noc(-c3cc(F)cc(C#N)c3)n2)nc1 ? Thanks! 3.2

Could you please provide reported IC50 for N#Cc1cc(F)cc(-c2nc(-c3ccc(F)cn3)no2)c1 ? Thanks! 2.6

The reported numbers originate from ChEMBL document CHEMBL2163282.
